- Target or test system: Full length Human HDAC2 (Homo sapiens)
- Construct: Full length Human HDAC2; FLAG (C); host or cells: baculovirus expression system
- Assay summary: HDAC2 enzymatic assay (deacetylation of FAM-labeled peptide substrate, microfluidic electrophoresis)
- Assay type: biochemical
- Assay setup: recombinant enzymatic assay, Table 2, class symbols
pIC50: −log10 of the molar value.
Metric: pIC50

[
  {
    "Molecule": "Nc1ccc(-c2ccc(F)cc2)nc1NC(=O)N1CC(Cc2ccc(F)cn2)C1",
    "Metric": "pIC50",
    "Test value": "5.70 to 6.00"
  },
  {
    "Molecule": "Nc1ccc(-c2ccc(F)cc2F)nc1NC(=O)N1CC(Cc2ncc(F)cn2)C1",
    "Metric": "pIC50",
    "Test value": "6.00 to 6.30"
  },
  {
    "Molecule": "COCc1ccc(CC2CN(C(=O)Nc3nc(-c4ccc(F)cc4)ccc3N)C2)nc1",
    "Metric": "pIC50",
    "Test value": "6.00 to 6.30"
  },
  {
    "Molecule": "Nc1ccc(-c2ccc(F)cc2F)nc1NC(=O)N1CC(C(F)(F)c2ncccn2)C1",
    "Metric": "pIC50",
    "Test value": "6.00 to 6.30"
  },
  {
    "Molecule": "COC1(Cc2nccn2C)CN(C(=O)Nc2nc(-c3ccc(F)cc3)ccc2N)C1",
    "Metric": "pIC50",
    "Test value": "< 5.70"
  },
  {
    "Molecule": "Nc1ccc(-c2ccc(F)cc2)nc1NC(=O)N1CC(Cc2ncc(C(F)F)cn2)C1",
    "Metric": "pIC50",
    "Test value": "6.00 to 6.30"
  },
  {
    "Molecule": "CC(c1ncccn1)C1CN(C(=O)Nc2nc(-c3ccc(F)cc3F)ccc2N)C1 (stereo not drawn)",
    "Metric": "pIC50",
    "Test value": "5.70 to 6.00"
  },
  {
    "Molecule": "Nc1ccc(-c2ccccc2F)nc1NC(=O)N1CC(Cc2ncc(F)cn2)C1",
    "Metric": "pIC50",
    "Test value": "6.00 to 6.30"
  },
  {
    "Molecule": "Cc1ccc(CC2CN(C(=O)Nc3nc(-c4ccc(F)cc4F)ccc3N)C2)cn1",
    "Metric": "pIC50",
    "Test value": "5.70 to 6.00"
  },
  {
    "Molecule": "Cn1ccnc1CC1CN(C(=O)Nc2nc(-c3ccc(F)cc3F)ccc2N)C1",
    "Metric": "pIC50",
    "Test value": "5.70 to 6.00"
  },
  {
    "Molecule": "Nc1ccc(-c2ccc(F)cc2)nc1NC(=O)N1CC(Cc2ncccn2)C1",
    "Metric": "pIC50",
    "Test value": "5.70 to 6.00"
  },
  {
    "Molecule": "Nc1ccc(-c2cccs2)nc1NC(=O)N1CC(Cc2ncc(F)cn2)C1",
    "Metric": "pIC50",
    "Test value": "5.70 to 6.00"
  },
  {
    "Molecule": "Cc1ccnc(CC2CN(C(=O)Nc3nc(-c4ccc(F)cc4)ccc3N)C2)n1",
    "Metric": "pIC50",
    "Test value": "6.00 to 6.30"
  },
  {
    "Molecule": "Nc1ccc(-c2ccc(F)cc2F)nc1NC(=O)N1CC(Cc2cccnn2)C1",
    "Metric": "pIC50",
    "Test value": "6.00 to 6.30"
  },
  {
    "Molecule": "Nc1ccc(-c2ccc(F)cc2F)nc1NC(=O)N1CC(Cc2cccnc2)C1",
    "Metric": "pIC50",
    "Test value": "5.70 to 6.00"
  },
  {
    "Molecule": "Nc1ccc(-c2ccc(F)s2)nc1NC(=O)N1CC(Cc2ncccn2)C1",
    "Metric": "pIC50",
    "Test value": "6.00 to 6.30"
  },
  {
    "Molecule": "CC(c1ncccn1)C1CN(C(=O)Nc2nc(-c3ccc(F)cc3)ccc2N)C1 (stereo not drawn)",
    "Metric": "pIC50",
    "Test value": "6.00 to 6.30"
  },
  {
    "Molecule": "Nc1ccc(-c2cccs2)nc1NC(=O)N1CC(C(F)(F)c2ncccn2)C1",
    "Metric": "pIC50",
    "Test value": "6.00 to 6.30"
  }
]

---

Reported pIC50 values for the following molecules.
- Target or test system: HDAC2 (Homo sapiens)
- Construct: host or cells: SH-SY5Y cells
- Sequence (Q92769 whole entry): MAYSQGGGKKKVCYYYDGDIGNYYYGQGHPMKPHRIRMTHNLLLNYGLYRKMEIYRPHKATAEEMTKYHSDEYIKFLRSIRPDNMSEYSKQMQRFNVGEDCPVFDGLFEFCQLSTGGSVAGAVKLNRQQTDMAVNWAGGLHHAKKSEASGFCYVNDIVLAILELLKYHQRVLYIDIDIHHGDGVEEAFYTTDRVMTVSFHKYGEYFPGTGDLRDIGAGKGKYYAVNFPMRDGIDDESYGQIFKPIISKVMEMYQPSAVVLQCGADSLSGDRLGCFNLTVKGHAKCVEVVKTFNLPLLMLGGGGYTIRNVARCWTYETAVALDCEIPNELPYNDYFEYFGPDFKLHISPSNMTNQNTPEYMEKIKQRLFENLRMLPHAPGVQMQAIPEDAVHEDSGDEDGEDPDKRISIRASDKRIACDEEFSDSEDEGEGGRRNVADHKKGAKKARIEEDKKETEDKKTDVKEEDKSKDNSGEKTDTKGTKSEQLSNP
- Assay summary: HDAC2 Enzymatic Inhibition Assay in SH-SY5Y Cell Lysate with an Exogenous Substrate (HDAC-Glo 2)
- Assay type: cell-based
- Assay setup: SH-SY5Y cells, five hours incubation, Table 3, class symbols
pIC50: −log10 of the molar value.

[
  {
    "Molecule": "Nc1ccc(-c2ccc(F)cc2F)nc1NC(=O)N1CC(Cc2cnccn2)C1",
    "pIC50": "5.70 to 6.00"
  },
  {
    "Molecule": "Nc1ccc(-c2ccc(F)cc2)nc1NC(=O)N1CC(Cc2ncc(F)cn2)C1",
    "pIC50": "6.00 to 6.30"
  },
  {
    "Molecule": "Nc1ccc(-c2ccc(F)cc2F)nc1NC(=O)N1CC(C(F)c2ncc(F)cn2)C1 (centres unmarked)",
    "pIC50": "5.70 to 6.00"
  },
  {
    "Molecule": "CC(c1ncccn1)C1CN(C(=O)Nc2nc(-c3ccccc3F)ccc2N)C1 (centres unmarked)",
    "pIC50": "5.70 to 6.00"
  },
  {
    "Molecule": "Nc1ccc(-c2ccc(F)cc2F)nc1NC(=O)N1CC(Cn2cccn2)C1",
    "pIC50": "5.70 to 6.00"
  }
]

---

- Target or test system: Full length Human HDAC2 (Homo sapiens, UniProt Q92769)
- Construct: Full length Human HDAC2; FLAG (C); host or cells: baculovirus expression system
- Sequence (Q92769 whole entry): as above
- Assay summary: HDAC2 enzymatic assay (deacetylation of FAM-labeled peptide substrate, microfluidic electrophoresis)
- Type: biochemical
- Assay setup: recombinant enzymatic assay, Table 2, numeric value
pIC50: −log10 of the molar value.
Metric: pIC50

[
  {
    "Compound": "Nc1ccc(-c2ccc(F)cc2)nc1NC(=O)N1CC(Cc2ncc(C(F)(F)F)cn2)C1 [Compound 84]",
    "Test value": 5.92
  }
]

---

Reported pIC50 values for the following compounds.
- Target or test system: Full length Human HDAC2 (Homo sapiens)
- Construct: Full length Human HDAC2; FLAG (C); host or cells: baculovirus expression system
- Assay summary: HDAC2 enzymatic assay (deacetylation of FAM-labeled peptide substrate, microfluidic electrophoresis)
- Type: biochemical
- Assay setup: recombinant enzymatic assay, Table 2, class symbols
pIC50: −log10 of the molar value.

[
  {
    "Test smiles": "Cc1ccc(CC2CN(C(=O)Nc3nc(-c4ccc(F)cc4F)ccc3N)C2)nn1",
    "Target or test system": "Full length Human HDAC2 (Homo sapiens)",
    "pIC50": "5.70 to 6.00"
  },
  {
    "Test smiles": "Nc1ccc(-c2ccc(F)cc2F)nc1NC(=O)N1CC(Cn2ccnc2)C1",
    "Target or test system": "Full length Human HDAC2 (Homo sapiens)",
    "pIC50": "< 5.70"
  },
  {
    "Test smiles": "Nc1ccc(-c2ccc(F)cc2F)nc1NC(=O)N1CC(CCc2ccccn2)C1",
    "Target or test system": "Full length Human HDAC2 (Homo sapiens)",
    "pIC50": "< 5.70"
  },
  {
    "Test smiles": "Cc1cnc(CC2CN(C(=O)Nc3nc(-c4ccc(F)cc4F)ccc3N)C2)cn1",
    "Target or test system": "Full length Human HDAC2 (Homo sapiens)",
    "pIC50": "6.00 to 6.30"
  },
  {
    "Test smiles": "Cc1nnc(CC2CN(C(=O)Nc3nc(-c4ccc(F)cc4F)ccc3N)C2)s1",
    "Target or test system": "Full length Human HDAC2 (Homo sapiens)",
    "pIC50": "5.70 to 6.00"
  },
  {
    "Test smiles": "CC(F)(F)c1cnc(CC2CN(C(=O)Nc3nc(-c4ccc(F)cc4)ccc3N)C2)nc1",
    "Target or test system": "Full length Human HDAC2 (Homo sapiens)",
    "pIC50": "6.00 to 6.30"
  }
]

---

Reported pIC50 values for the following compounds.
- Target or test system: Full length Human HDAC1 (Homo sapiens, UniProt Q13547)
- Construct: Full length Human HDAC1; His (C); FLAG (C); host or cells: baculovirus expression system
- Sequence (Q13547 whole entry): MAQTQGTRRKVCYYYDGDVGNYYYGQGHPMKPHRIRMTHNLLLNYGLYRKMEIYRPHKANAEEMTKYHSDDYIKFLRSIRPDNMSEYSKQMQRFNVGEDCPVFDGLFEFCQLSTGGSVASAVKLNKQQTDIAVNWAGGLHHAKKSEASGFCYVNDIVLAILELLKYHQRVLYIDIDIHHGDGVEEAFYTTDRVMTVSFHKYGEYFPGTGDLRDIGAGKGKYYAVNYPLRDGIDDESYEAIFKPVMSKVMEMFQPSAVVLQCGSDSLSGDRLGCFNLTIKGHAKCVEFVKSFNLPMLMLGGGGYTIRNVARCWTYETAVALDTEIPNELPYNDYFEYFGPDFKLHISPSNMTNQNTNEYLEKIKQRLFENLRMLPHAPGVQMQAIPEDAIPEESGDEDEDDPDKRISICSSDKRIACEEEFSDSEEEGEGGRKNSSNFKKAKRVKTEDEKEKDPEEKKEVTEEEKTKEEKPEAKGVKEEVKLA
- Assay summary: HDAC1 enzymatic assay (deacetylation of FAM-labeled peptide substrate, microfluidic electrophoresis)
- Assay type: biochemical
- Assay setup: recombinant enzymatic assay, Table 2, class symbols
pIC50: −log10 of the molar value.
Metric: pIC50

[
  {
    "Compound": "Nc1ccc(-c2cccs2)nc1NC(=O)N1CC(Cc2ncccn2)C1",
    "Test value": "> 6.30"
  },
  {
    "Compound": "Nc1ccc(-c2ccccc2F)nc1NC(=O)N1CC(Cc2ncc(F)cn2)C1",
    "Test value": "6.00 to 6.30"
  },
  {
    "Compound": "Cc1nccc(CC2CN(C(=O)Nc3nc(-c4ccc(F)cc4F)ccc3N)C2)n1",
    "Test value": "< 5.70"
  },
  {
    "Compound": "Cn1ccnc1CC1CN(C(=O)Nc2nc(-c3ccc(F)cc3F)ccc2N)C1",
    "Test value": "6.00 to 6.30"
  },
  {
    "Compound": "CC(c1ncccn1)C1CN(C(=O)Nc2nc(-c3ccc(F)cc3)ccc2N)C1 (stereo not drawn)",
    "Test value": "> 6.30"
  },
  {
    "Compound": "Cc1ncc(CC2CN(C(=O)Nc3nc(-c4ccc(F)cc4)ccc3N)C2)cn1",
    "Test value": "6.00 to 6.30"
  },
  {
    "Compound": "Cc1cncc(CC2CN(C(=O)Nc3nc(-c4ccc(F)cc4F)ccc3N)C2)n1",
    "Test value": "5.70 to 6.00"
  },
  {
    "Compound": "Nc1ccc(-c2ccc(F)cc2F)nc1NC(=O)N1CC(Cn2cccn2)C1",
    "Test value": "5.70 to 6.00"
  },
  {
    "Compound": "Nc1ccc(-c2ccc(F)cc2)nc1NC(=O)N1CC(Cc2ccc(F)cn2)C1",
    "Test value": "> 6.30"
  }
]
